# Tested on: 786-O
# experiment: Euclidean distance of Cell Painting phenotypic profile (signed KS, 77 features) to DMSO centroid (dimensionless distance); 5 or 10 uM (library dependent); higher = stronger phenotypic change vs DMSO (phenoactivity)
# conditionParameters: 48 h
Structures can show the parent of a compound that is named as a salt.
Kindly return t if reported Euclidean distance is no lower than 1; return f if it is lower.

Reported Euclidean distance at or above 1? CCC(=O)OCC(=O)[C@@]1(OC(=O)CC)[C@@H](C)C[C@H]2[C@@H]3CCC4=CC(=O)C=C[C@]4(C)[C@@]3(Cl)[C@@H](O)C[C@@]21C [Beclomethasone dipropionate] t

Now consider Cc1ccccc1-c1cc(N2CCN(C)CC2)ncc1N(C)C(=O)C(C)(C)c1cc(C(F)(F)F)cc(C(F)(F)F)c1 [Netupitant] . t

Now this one: CC(C)NCC(O)COc1cccc2[nH]c3ccccc3c12 (stereo not drawn) [Carazolol] t

Follow-up entry: Cc1ccc(O)c([C@H](CCN(C(C)C)C(C)C)c2ccccc2)c1 [Tolterodine tartrate] t

Now the same for CC(C(=O)O)c1ccc(C(=O)c2ccccc2)s1 (stereo not drawn) [Tiaprofenic acid] t

Continue with CC(C)[C@H](C(=O)Nc1ccc(C(=O)NO)cc1)c1ccccc1 t

Also O=C(NCCO[N+](=O)[O-])c1cccnc1 [Nicorandil] ? t

What do we get for O=C(Nc1cccc(Cl)c1)c1ccccn1 ? t

Another compound: COc1cc(O)c2c(c1)C(=O)c1cc(C)cc(O)c1C2=O [Rheochrysidin] t

How about this compound: Cc1c(N)c(=O)n(-c2ccccc2)n1C [4-Aminoantipyrine] t

Now try CCOC(=O)N1c2ccc(C(F)(F)F)cc2[C@@H](N(Cc2cc(C(F)(F)F)cc(C(F)(F)F)c2)C(=O)OC)C[C@H]1CC [Torcetrapib] . t

Do the same for CNCCC(Oc1ccc(C(F)(F)F)cc1)c1ccccc1 (stereo not drawn) [Fluoxetine HCl] please f

Now give it for CCN(Cc1ccncc1)C(=O)C(CO)c1ccccc1 (stereo not drawn) [Tropicamide] too. t

Same again, this time with CN(C)CC/C=C1/c2ccccc2COc2ccc(CC(=O)O)cc21 [Olopatadine HCl] f

Please do the same for CS(=O)(=O)CCNCc1ccc(-c2ccc3ncnc(Nc4ccc(OCc5cccc(F)c5)c(Cl)c4)c3c2)o1 [Lapatinib] as well. t

Try this compound too: COc1cc2c(cc1OC)[C@H]1C[C@@H](OC(=O)[C@@H](N)C(C)C)[C@H](CC(C)C)CN1CC2 [Valbenazine tosylate] f

Again, but for CCN1CCN(C(=O)N[C@@H](C(=O)N[C@@H]2C(=O)N3C(C(=O)O)=C(CSc4nnnn4C)CS[C@H]23)c2ccc(O)cc2)C(=O)C1=O [Cefoperazone] t
